- EXPERIMENTAL_TARGET: T1, CD40 ligand (UniProt P29965 108-261, limits assumed)
- T1 construct: Used immobilised, soluble, or biotinylated on streptavidin beads; also called CD154; soluble CD40L
- T1 sequence (looked up): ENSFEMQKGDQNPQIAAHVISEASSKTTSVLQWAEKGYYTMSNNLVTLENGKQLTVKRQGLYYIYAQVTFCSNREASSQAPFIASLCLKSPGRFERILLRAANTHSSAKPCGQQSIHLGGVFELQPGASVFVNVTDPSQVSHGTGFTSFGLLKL
- ASSAY_REMARKS: Alphascreen, PEGylated peptide, inhibition of CD40L/CD40-Fc
No end group written: not given here. PEG = not defined here
Could you mark each record condition met if its EC50 falls strictly under 50 nM, and condition not met if it equals or exceeds it?

{PEG}-PRWVRNRFYSLFVPSGVQRGGIHLWFSNWVR (reading uncertain, also called PEGylated M1_50S) [PEGylated CD40L M1_50s] | condition not met
{PEG}-DAAGREFFQIAGLFSFRHHWWQA (reading uncertain, also called PEGylated M1_30S) [PEGylated CD40L M1_30s] | condition met
{PEG}-SIQYHWRYSRFKYYFQLIWVYYSHV (reading uncertain) [PEGylated CD40L M1_82s] | condition not met
{PEG}-LLYVKVISFFSMLVQYNNFQTYK (reading uncertain) [PEGylated CD40L M2_159s] | condition not met
{PEG}-PPRYNLFFLFRFYSSFRRDYLYF (reading uncertain, also called PEGylated M1_9S) [PEGylated CD40L M1_9s] | condition met
{PEG}-HPFSIKNVFSIWNFFSVY (reading uncertain, also called PEGylated M1_6S) [PEGylated CD40L M1_6s] | condition met
{PEG}-HSFVLFGVNVPFNIIDFQMRVKS (reading uncertain, also called PEGylated M1_42S) [PEGylated CD40L M1_42s] | condition not met

Then there is this binder:
Answer whether the binder {PEG}-LPFVPYRSHVLKYGWFFPVQWSIFAVLPFQYLHRSR (reading uncertain, also called PEGylated M1-18S) [PEGylated CD40L M1_18s] has EC50 strictly less than 50 nM
condition not met
